assay: Selectivity ratio of Ki value of iNOS to nNOS
Square brackets hold non-standard residues; d marks the D form. Peptide text beside a SMILES is read from it. dArg(NO2) = N=C(NCCC[C@@H](N)C(=O)O)N[N+](=O)[O-]
observable: Selectivity
Number only, please.

Selectivity for "N/C(=N\CCC[C@H](N)CNc1ccc(N)cc1)N[N+](=O)[O-]" is 149

Form field Selectivity, entry "NCc1ccccc1NC[C@@H](N)CCC/N=C(\N)N[N+](=O)[O-]" : 5.28

Record "N/C(=N\CCC[C@H](N)CNCCc1ccccc1N)N[N+](=O)[O-]" . Reported Selectivity: 135

Memo: COC(=O)[C@@H](CCCNC(=N)N[N+](=O)[O-])NC(=O)[C@H](N)Cc1ccccc1 (H-[dF]-[dArg(NO2)]-OMe) , reported Selectivity: 1800

Field Selectivity (entry "N/C(=N\CCC[C@H](N)CNCCc1ccc(N)cc1)N[N+](=O)[O-]" ) reads 458

// recorded Selectivity for "N/C(=N\CCC[C@H](N)CNCCc1cccc(N)c1)N[N+](=O)[O-]" : 122

Entry under test: "NCc1ccc(NC[C@@H](N)CCC/N=C(\N)N[N+](=O)[O-])cc1" . Its Selectivity was 245

The molecule identified as "N/C(=N\CCC[C@H](N)CNc1cccc(N)c1)N[N+](=O)[O-]" registered its Selectivity at 127

Memo: "N/C(=N\CCC[C@H](N)CNCc1cccnc1)N[N+](=O)[O-]" , reported Selectivity: 256

----------
experiment: Selectivity ratio of Ki value of eNOS to nNOS
Square brackets hold non-standard residues; d marks the D form. Peptide text beside a SMILES is read from it. dArg(NO2) = N=C(NCCC[C@@H](N)C(=O)O)N[N+](=O)[O-]
observable: Selectivity
Enter the number alone.

Measured Selectivity, "N/C(=N\CCC[C@H](N)CNCc1cccnc1)N[N+](=O)[O-]" : 951

Form: molecule = "NCc1ccccc1NC[C@@H](N)CCC/N=C(\N)N[N+](=O)[O-]" ; Selectivity = 7.17

Documented Selectivity of COC(=O)[C@@H](CCCNC(=N)N[N+](=O)[O-])NC(=O)[C@H](N)Cc1ccccc1 (H-[dF]-[dArg(NO2)]-OMe) : 2.5

What the record says about "N/C(=N\CCC[C@H](N)CNCCc1ccccc1N)N[N+](=O)[O-]" : Selectivity is 22.1

Quick note, Selectivity for "N/C(=N\CCC[C@H](N)CNc1cccc(N)c1)N[N+](=O)[O-]" landed at 36

----------
Provide the reported Selectivity of each item.
experiment: Selectivity ratio of Ki value of eNOS to nNOS

Reported Selectivity of "NCc1ccc(NC[C@@H](N)CCC/N=C(\N)N[N+](=O)[O-])cc1" : 299

Notebook: "N/C(=N\CCC[C@H](N)CNCCc1cccc(N)c1)N[N+](=O)[O-]" , Selectivity read as 35

Selectivity recorded for this compound, "N/C(=N\CCC[C@H](N)CNc1ccc(N)cc1)N[N+](=O)[O-]" , is 51

So for "N/C(=N\CCC[C@H](N)CNCCc1ccc(N)cc1)N[N+](=O)[O-]" , the logged Selectivity turned out to be 230

----------
Square brackets hold non-standard residues; d marks the D form. Peptide text beside a SMILES is read from it. dArg(NO2) = N=C(NCCC[C@@H](N)C(=O)O)N[N+](=O)[O-]
observable: Ki (µM)
Lab book: enter the figure in µM, no units written.

Short answer on Nitric oxide synthase 1 (Rattus norvegicus) for COC(=O)[C@@H](CCCNC(=N)N[N+](=O)[O-])NC(=O)[C@H](N)Cc1ccccc1 (H-[dF]-[dArg(NO2)]-OMe) , Ki: 2

Entry NCCCC[C@@H](N)C(=O)N[C@H](CCC/N=C(/N)N[N+](=O)[O-])C(N)=O (H-[dK]-[dArg(NO2)]-NH2) , tested on Nitric oxide synthase 1 (Rattus norvegicus), has a reported Ki of 0.89
